pKi: −log10 of the molar value.
Literature survey of pKi (system: Nitric oxide synthase 1 (Homo sapiens)).
Sequence (P29475 whole entry): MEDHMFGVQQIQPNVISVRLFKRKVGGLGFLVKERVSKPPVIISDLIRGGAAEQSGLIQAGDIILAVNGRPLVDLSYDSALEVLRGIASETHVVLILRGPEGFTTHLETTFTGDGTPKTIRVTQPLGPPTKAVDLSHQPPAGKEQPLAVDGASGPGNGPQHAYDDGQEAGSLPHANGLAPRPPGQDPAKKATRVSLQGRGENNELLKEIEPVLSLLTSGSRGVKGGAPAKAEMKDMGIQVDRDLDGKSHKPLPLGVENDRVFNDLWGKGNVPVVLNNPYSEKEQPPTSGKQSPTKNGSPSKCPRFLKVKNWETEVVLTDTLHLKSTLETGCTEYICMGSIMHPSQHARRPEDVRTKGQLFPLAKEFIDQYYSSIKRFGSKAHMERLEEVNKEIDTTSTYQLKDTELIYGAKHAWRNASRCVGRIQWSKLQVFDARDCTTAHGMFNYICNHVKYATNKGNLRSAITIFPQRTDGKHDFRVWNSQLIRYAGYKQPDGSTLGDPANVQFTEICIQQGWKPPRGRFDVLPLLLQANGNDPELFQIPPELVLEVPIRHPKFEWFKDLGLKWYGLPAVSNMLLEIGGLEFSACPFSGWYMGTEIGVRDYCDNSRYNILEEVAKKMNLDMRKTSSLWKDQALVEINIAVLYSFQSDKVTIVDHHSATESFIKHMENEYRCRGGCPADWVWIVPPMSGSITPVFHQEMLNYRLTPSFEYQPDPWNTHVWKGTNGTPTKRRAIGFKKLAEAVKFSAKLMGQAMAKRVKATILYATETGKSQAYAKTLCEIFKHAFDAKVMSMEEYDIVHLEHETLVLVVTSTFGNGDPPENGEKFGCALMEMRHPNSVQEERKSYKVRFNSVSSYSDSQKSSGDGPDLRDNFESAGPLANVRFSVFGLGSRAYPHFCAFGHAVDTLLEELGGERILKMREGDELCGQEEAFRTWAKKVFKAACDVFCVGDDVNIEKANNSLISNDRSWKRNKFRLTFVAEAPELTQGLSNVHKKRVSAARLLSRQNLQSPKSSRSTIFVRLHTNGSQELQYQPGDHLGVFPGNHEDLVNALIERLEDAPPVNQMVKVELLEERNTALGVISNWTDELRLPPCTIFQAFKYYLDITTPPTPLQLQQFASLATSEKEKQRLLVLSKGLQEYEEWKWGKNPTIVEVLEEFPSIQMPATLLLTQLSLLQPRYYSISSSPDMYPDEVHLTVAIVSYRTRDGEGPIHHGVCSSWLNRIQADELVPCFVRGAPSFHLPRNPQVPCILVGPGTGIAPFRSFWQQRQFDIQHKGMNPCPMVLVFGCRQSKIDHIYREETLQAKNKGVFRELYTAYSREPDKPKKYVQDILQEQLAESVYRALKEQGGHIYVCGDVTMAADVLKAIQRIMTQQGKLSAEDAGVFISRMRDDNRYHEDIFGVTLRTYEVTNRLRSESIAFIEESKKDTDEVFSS
Threshold check on pKi: at or above 6 gives YES, strictly below gives NO.

Reference set (5 entries):
Item CNC(N)=Nc1cccc(CC(N)C(=O)O)c1 (stereo not given) with pKi of 6 or above?
NO

Item CC(=N)Nc1cccc(C(=N)N)c1 with pKi of 6 or above?
YES

Item N=C(N)SCCCc1ccccc1 with pKi of 6 or above?
NO

Item CC(=N)Nc1cccc(CN=C(C)N)c1 with pKi of 6 or above?
YES

Item N=C(N)SCCc1ccc(CCSC(=N)N)cc1 with pKi of 6 or above?
YES

***
Item CSC(=N)Nc1ccc(Cl)cc1 with pKi of 6 or above?
YES

Item Brc1ccccc1OCCCCn1ccnc1 with pKi of 6 or above?
NO

Item CC(C)SC(=N)Nc1ccc(C(F)(F)F)cc1 with pKi of 6 or above?
NO

Item Cc1cc(N)nc(CCc2cc(CCCN(C)C)cc(F)c2F)c1 with pKi of 6 or above?
YES

Item N=C(NC1CC1)n1cccn1 with pKi of 6 or above?
NO
